# testTarget: ABCB1 (P-gp) (Homo sapiens, UniProt P08183)
# Sequence (P08183 whole entry): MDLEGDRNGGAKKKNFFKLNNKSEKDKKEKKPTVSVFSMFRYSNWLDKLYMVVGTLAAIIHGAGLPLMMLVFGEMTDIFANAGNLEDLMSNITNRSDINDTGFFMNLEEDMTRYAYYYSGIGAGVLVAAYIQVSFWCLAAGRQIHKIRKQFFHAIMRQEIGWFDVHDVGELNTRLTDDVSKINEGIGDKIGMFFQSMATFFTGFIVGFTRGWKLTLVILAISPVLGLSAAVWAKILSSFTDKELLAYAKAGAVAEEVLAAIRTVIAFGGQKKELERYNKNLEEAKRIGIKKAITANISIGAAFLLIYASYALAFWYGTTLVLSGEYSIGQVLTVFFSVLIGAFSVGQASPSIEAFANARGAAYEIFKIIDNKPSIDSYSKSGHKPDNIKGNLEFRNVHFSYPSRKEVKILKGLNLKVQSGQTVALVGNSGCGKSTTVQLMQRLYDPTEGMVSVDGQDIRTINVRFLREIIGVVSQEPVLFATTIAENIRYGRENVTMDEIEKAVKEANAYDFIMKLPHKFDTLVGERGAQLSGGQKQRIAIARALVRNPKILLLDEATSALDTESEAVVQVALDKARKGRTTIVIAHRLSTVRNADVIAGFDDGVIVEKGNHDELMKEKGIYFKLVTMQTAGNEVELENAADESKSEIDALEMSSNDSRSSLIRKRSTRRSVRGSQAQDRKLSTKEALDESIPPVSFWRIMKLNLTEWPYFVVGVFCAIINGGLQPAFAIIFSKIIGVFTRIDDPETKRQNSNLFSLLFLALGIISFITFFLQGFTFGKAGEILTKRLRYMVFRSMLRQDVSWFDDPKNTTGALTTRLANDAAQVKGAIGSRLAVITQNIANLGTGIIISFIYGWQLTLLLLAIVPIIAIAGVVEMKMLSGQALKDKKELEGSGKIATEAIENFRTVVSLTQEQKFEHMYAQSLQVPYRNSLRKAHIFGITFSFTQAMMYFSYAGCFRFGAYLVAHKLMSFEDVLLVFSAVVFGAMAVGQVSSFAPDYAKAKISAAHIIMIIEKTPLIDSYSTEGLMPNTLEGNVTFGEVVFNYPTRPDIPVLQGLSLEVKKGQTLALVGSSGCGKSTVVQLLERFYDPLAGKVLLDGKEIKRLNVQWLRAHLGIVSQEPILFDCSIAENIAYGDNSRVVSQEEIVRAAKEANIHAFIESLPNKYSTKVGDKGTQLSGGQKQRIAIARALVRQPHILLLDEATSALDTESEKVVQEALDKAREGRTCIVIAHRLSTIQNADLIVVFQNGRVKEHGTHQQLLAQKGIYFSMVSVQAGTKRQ
# procedureText: Inhibition of ABCB1 in human A2780adr cells at 10 uM pre-incubated for 30 mins followed by calcein AM addition and further incubated for 60 mins by calcein AM assay
# Type: cell-based, A2780 ADR
# conditionLabel: probe calcein AM
observable: inhibition at 1 h, 10 µM

# input Fill blank: measured inhibition at 1 h, 10 µM of the molecule COc1ccc(C(=O)Nc2ccccc2-c2nnn(-c3ccccc3OC)n2)cc1 is ____.
# output ≥ 25%

# input Fill blank: measured inhibition at 1 h, 10 µM of the molecule COc1ccc(-n2nnc(-c3ccccc3NC(=O)c3ccc([N+](=O)[O-])cc3)n2)cc1 is ____.
# output < 25%

# input Fill blank: measured inhibition at 1 h, 10 µM of the molecule COc1ccc(-n2nnc(-c3ccccc3NC(=O)c3ccc(OC)c(OC)c3)n2)cc1 is ____.
# output ≥ 25%

# input Fill blank: measured inhibition at 1 h, 10 µM of the molecule COc1cccc(-n2nnc(-c3ccccc3NC(=O)c3ccc(C(F)(F)F)cc3)n2)c1 is ____.
# output < 25%

Now, please, on to the next molecule.
# input Fill blank: measured inhibition at 1 h, 10 µM of the molecule O=C(Nc1ccccc1-c1nnn(-c2ccc(C(F)(F)F)cc2)n1)c1ccc([N+](=O)[O-])cc1 is ____.
# output < 25%

====

# testTarget: ATP-dependent translocase ABCB1 (Homo sapiens)
# procedureText: Inhibition of ABCB1 in human A2780adr cells pre-incubated for 30 mins followed by calcein AM addition and further incubated for 60 mins by calcein AM assay
# Assay type: cell-based, A2780 ADR
observable: IC50 (µM)

Sample records with IC50:
# input Quick check: IC50 on ATP-dependent translocase ABCB1 (Homo sapiens), item COc1ccc(-n2nnc(-c3ccccc3NC(=O)c3ccc(OC)c(OC)c3)n2)cc1 ?
# output 37.2

# input Quick check: IC50 on ATP-dependent translocase ABCB1 (Homo sapiens), item COc1ccc(C(=O)Nc2ccccc2-c2nnn(-c3ccccc3OC)n2)cc1 ?
# output 7.73

(P) COc1ccccc1-n1nnc(-c2ccccc2NC(=O)c2ccc(C(F)(F)F)cc2)n1
(Q) CCOc1ccc(-n2nnc(-c3ccccc3NC(=O)c3ccc(OC)c(OC)c3)n2)cc1
# input Lab log: flag the item ( P or Q ) with the smaller IC50 figure. # answer = label of selected item
# output P

====

# testTarget: UniProt:Q9UNQ0
# Sequence (Q9UNQ0 whole entry): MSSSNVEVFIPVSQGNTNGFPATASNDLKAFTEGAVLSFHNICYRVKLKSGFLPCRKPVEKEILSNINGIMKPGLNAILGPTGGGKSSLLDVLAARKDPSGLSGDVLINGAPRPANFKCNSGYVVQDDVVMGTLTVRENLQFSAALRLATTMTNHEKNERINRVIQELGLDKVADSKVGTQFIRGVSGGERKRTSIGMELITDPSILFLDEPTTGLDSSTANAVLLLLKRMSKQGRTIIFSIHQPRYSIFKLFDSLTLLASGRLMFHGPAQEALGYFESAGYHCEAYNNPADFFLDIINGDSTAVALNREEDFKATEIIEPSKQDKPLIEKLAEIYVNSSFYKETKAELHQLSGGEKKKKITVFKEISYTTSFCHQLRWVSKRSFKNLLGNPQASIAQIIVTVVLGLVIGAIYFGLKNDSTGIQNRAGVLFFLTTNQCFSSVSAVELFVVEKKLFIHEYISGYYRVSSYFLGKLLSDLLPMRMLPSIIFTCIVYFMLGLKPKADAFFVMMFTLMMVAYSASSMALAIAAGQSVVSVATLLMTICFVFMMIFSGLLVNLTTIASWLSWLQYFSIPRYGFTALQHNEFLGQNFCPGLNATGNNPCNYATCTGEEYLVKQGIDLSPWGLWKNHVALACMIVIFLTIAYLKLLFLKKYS
# procedureText: Inhibition of GFP-tagged human BCRP expressed in MDCK2 cells pre-incubated for 30 mins followed by Hoechst 33342 addition and further incubated for 120 mins by Hoechst 33342 accumulation assay
observable: IC50 (nM)

# input Fill blank: measured IC50 of the compound COc1ccc(C(=O)Nc2ccccc2-c2nnn(-c3ccc(C(F)(F)F)cc3)n2)cc1OC is ____.
# output 269

# input Fill blank: measured IC50 of the compound CCOc1ccc(-n2nnc(-c3ccccc3NC(=O)c3ccc(OC)c(OC)c3)n2)cc1 is ____.
# output 201

(A) COc1cccc(-n2nnc(-c3ccccc3NC(=O)c3ccc(C(F)(F)F)cc3)n2)c1
(B) COc1ccc(-n2nnc(-c3ccccc3NC(=O)c3ccc(C(F)(F)F)cc3)n2)cc1
# input Short answer wanted: higher IC50, A or B ? # answer = label of selected item
# output A
(A: 11200 nM, B: 106 nM)

(a) Cc1ccc(-n2nnc(-c3ccccc3NC(=O)c3ccc(C(F)(F)F)cc3)n2)cc1
(b) COc1ccccc1-n1nnc(-c2ccccc2NC(=O)c2ccc([N+](=O)[O-])cc2)n1
# input Lab log: flag the item ( a or b ) with the smaller IC50 figure. # answer = label of selected item
# output a
